biological target: T1, human VISTA (human, UniProt Q9H7M9 33-194, limits assumed); assay: method not stated (Table 1, column Kd, M)
T1 construct: The ELISA text says only recombinant VISTA; also called recombinant VISTA
quantity-measured: pKd
Please note pKd is a logarithmic value: minus log10 of concentration in mol/L. Answer with that number alone.

Fill in pKd for record INX910 | VSTB73 (antibody, V domains shown) VH: QVQLVQSGAEVKKPGASVKVSCKASGYTFTDYVISWVRQAPGQGLEWMGEIYPGSGNTYYYEKFKGRVTMTRDTSTSTVYMELSSLRSEDTAVYYCARVLVSVMDYWGQGTLVTVSS VL: EIVLTQSPDFQSVTPKEKVTITCSASSSINYITWYQQKPDQSPKLLIKDTSKLASGVPSRFSGSGSGTDFTLTINSLEAEDAATYYCHQRSSYPWTFGQGTRLEIKR 8.65
